# method_summary: InCell qHTS Assay for Inhibitors of the mTORC1 Signaling Pathway in WT MEF Cells: Hit Validation
# condition_summary: WT MEF phospho-rpS6 immunofluorescence, Acumen, 24 h; series mostly up to 38.3 µM
Records with an inconclusive call do not appear. Calls of active or inactive are those of the source. Calls come from the whole dose curve; as a rule, active = well fitted inhibition curve with a large enough effect; inconclusive = small, poorly fitted or top-dose-only effect; inactive = flat fitted curve, though single readings scatter.
readout_name: Potency

> print(dat)
                                    compound  readout.name             result
 1  COc1ccccc1Nc1c2c(nc3ccc(NC(=O)c4ccc(N(C)C)cc4)cc13)CCCC2       Potency   5.65 µM (active)
 2  CCN1CCN(c2cc(C)c3cc(NC(=O)c4cccc(Cl)c4)ccc3n2)CC1       Potency           inactive
 3  CCN1CCN(c2cc(C)c3cc(NC(=O)/C=C/c4ccc(OCCC(C)C)cc4)ccc3n2)CC1       Potency   3.18 µM (active)
 4  CCOc1ccc(/C=C/C(=O)Nc2ccc3nc(N(CC)CC)cc(C)c3c2)cc1OC       Potency     10 µM (active)
 5  COc1cc(Nc2nc(-c3ccc(OC)c(OC)c3)nc3ccccc23)cc(OC)c1       Potency           inactive
 6  COc1cc(-c2nc3ncccn3c2Nc2ccc(C)cc2C)ccc1O       Potency           inactive
 7  Cc1cc(N2CCN(C)CC2)nc2ccc(NC(=O)c3ccc(C(C)(C)C)cc3)cc12       Potency   15.9 µM (active)
 8  COc1cc(NC(=O)c2cccc(F)c2)ccc1NC(=O)c1cc2ccccc2o1       Potency   8.95 µM (active)
 9  O=C1CC(c2ccccc2)Cc2[nH]c(=O)c(-c3nc(-c4ccc(Cl)cc4)cs3)cc21 (stereo unspecified)       Potency           inactive
10  C=CCNC1=C2C[C@@H](C)C[C@H](OC)[C@H](O)[C@@H](C)/C=C(\C)[C@H](OC(N)=O)[C@@H](OC)/C=C\C=C(/C)C(=O)NC(=CC1=O)C2=O       Potency  0.252 µM (active)
11  CCN1CCN(c2cc(C)c3cc(NC(=O)/C=C/c4ccc(C)cc4)ccc3n2)CC1       Potency           inactive

---

# method_summary: InCell qHTS Assay for Inhibitors of the mTORC1 Signaling Pathway in WT MEF Cells: Hit Validation
# condition_summary: WT MEF phospho-rpS6 immunofluorescence, Acumen, 24 h; series mostly up to 38.3 µM
Inconclusive results are not listed. The source made the active and inactive calls. Calls follow the shape of the dose curve; as a rule, active = well fitted inhibition curve with a large enough effect; inconclusive = small, poorly fitted or top-dose-only effect; inactive = flat fitted curve, though single readings scatter.
Entries and their Potency
readout_name: Potency

> print(dat)
                           structure.string            result
1  COc1ccc(Nc2c3c(nc4ccc(NC(=O)/C=C/c5cccc(OC)c5OC)cc24)CCCC3)cc1OC  8.95 µM (active)
2  CCN(CC)c1cc(C)c2cc(NC(=O)/C=C/c3cc(OC)c(OC)c(OC)c3)ccc2n1  22.5 µM (active)
3  CCCOc1ccc(C(=O)Nc2ccc(NC(=O)c3ccccc3)c(Br)c2)cc1    10 µM (active)
4  COc1ccccc1Nc1c2c(nc3ccc(NC(=O)/C=C/c4cc(OC)c(OC)c(OC)c4)cc13)CCCC2  2.52 µM (active)
